# Tested on: RKO cells
# assay info: MTT assay in RKO cells
# Type: cell-based
# settings: Homo sapiens
assay endpoint: IC50

Example compounds with recorded IC50:
> print(dat)
                                        smi  value.reported
1  COc1cccc(NC(=O)Cn2cnc3c(sc4nc5c(cc43)COC(C)(C)C5)c2=O)c1         > 50 µM
2  CC1(C)Cc2nc3sc4c(=O)n(CC(=O)NCc5ccco5)cnc4c3cc2CO1          ~20 µM
3  CC(=O)c1ccc(NC(=O)Cn2cnc3c(sc4nc5c(cc43)COC(C)(C)C5)c2=O)cc1         > 25 µM

Now for a further compound.
Ask: Which IC50 value belongs to CC1(C)Cc2nc3sc4c(=O)n(CC(=O)N5CCOCC5)cnc4c3cc2CO1 ?
Reply: 0.98 µM
